target: Tyrosine-protein kinase BTK (Homo sapiens, UniProt Q06187); assay: Inhibition of full length N-terminal GST-tagged human BTK expressed in Sf21 cells assessed as Kinact using NH2-KKKAPFSWYLPEEG as substrate in presence of ATP measured for 2 hrs by microplate reader assay
Sequence (Q06187 whole entry): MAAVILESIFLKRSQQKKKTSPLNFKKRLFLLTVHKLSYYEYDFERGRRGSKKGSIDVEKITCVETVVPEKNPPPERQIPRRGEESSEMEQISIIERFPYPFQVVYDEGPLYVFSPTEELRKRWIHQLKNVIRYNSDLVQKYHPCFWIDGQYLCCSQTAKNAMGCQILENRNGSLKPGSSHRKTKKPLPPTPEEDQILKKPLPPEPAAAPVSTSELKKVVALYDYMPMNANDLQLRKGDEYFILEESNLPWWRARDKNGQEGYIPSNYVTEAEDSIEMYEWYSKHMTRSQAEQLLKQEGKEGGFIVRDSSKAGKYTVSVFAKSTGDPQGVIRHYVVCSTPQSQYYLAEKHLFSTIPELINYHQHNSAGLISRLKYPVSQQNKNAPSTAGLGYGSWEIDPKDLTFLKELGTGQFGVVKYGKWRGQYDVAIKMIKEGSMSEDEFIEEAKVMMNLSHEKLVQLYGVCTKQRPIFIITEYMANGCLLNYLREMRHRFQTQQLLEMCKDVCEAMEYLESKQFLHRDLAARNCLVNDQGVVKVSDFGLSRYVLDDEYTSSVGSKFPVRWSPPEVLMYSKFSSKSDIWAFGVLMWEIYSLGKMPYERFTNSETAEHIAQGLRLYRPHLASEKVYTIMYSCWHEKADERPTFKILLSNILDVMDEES
Experimental endpoint: Kinact (s⁻¹)
Your answer should be a plain number; it is taken to be in s⁻¹.

Solved cases (5 shown):
Smiles repr: C=CC(=O)N1CCC[C@@H](NC(=O)c2sc3nccc4c3c2NC(=O)N4c2ccc(Oc3ccccc3)nc2)C1
Unit string: s⁻¹
Kinact: 0.000278

Smiles repr: C=CC(=O)N1CCC[C@@H](NC(=O)c2sc3nccc4c3c2NC(=O)N4c2ncc(Oc3ccccc3)cc2C)C1
Unit string: s⁻¹
Kinact: 0.000333

Smiles repr: C=CC(=O)N1CCC[C@@H](NC(=O)c2sc3nccc4c3c2NC(=O)N4c2ccc(Oc3ccccc3)cc2)C1
Unit string: s⁻¹
Kinact: 0.00039

Smiles repr: C=CC(=O)N1CC[C@@H](NC(=O)c2sc3nccc4c3c2NC(=O)N4c2cnc(CC(C)C)cc2C)C1
Unit string: s⁻¹
Kinact: 0.000255

Smiles repr: C=CC(=O)N1CCC[C@@H](NC(=O)c2sc3nccc4c3c2NC(=O)N4c2cnc(OC(C)C)cc2C)C1
Unit string: s⁻¹
Kinact: 0.000345

Form field: reported Kinact of C=CC(=O)N1CCC[C@@H](NC(=O)c2sc3nccc4c3c2NC(=O)N4c2cnc(OC3CCCC3)cc2C)C1
0.000307

Same question for C=CC(=O)N1CCC[C@@H](NC(=O)c2sc3nccc4c3c2NC(=O)N4c2cnc(Oc3ccccc3)cc2C)C1 please.
0.000352

###

target: Tyrosine-protein kinase BTK (Homo sapiens); test: Inhibition of full length N-terminal GST-tagged human BTK expressed in Sf21 cells assessed as ratio of Kinact/Ki using NH2-KKKAPFSWYLPEEG as substrate in presence of ATP measured for 2 hrs by microplate reader assay
Experimental endpoint: Ratio (M⁻¹ s⁻¹)
Answer format: numeric, M⁻¹ s⁻¹ implied, no suffix.

Smiles repr: C=CC(=O)N1CCC[C@@H](NC(=O)c2sc3nccc4c3c2NC(=O)N4c2cnc(CC(C)C)cc2C)C1
Ratio / M⁻¹ s⁻¹: 2220
--
Smiles repr: C=CC(=O)N1CCC[C@@H](NC(=O)c2sc3nccc4c3c2NC(=O)N4c2ccc(Oc3ccccc3)nc2)C1
Ratio / M⁻¹ s⁻¹: 786

Now take the following molecule into account.
Field request: Ratio | item: C=CC(=O)N1CCC[C@@H](NC(=O)c2sc3nccc4c3c2NC(=O)N4c2ncc(Oc3ccccc3)cc2C)C1
4770

###

target: Tyrosine-protein kinase BTK (Homo sapiens); assay: Inhibition of full length N-terminal GST-tagged human BTK expressed in Sf21 cells assessed as ratio of Kinact/Ki using NH2-KKKAPFSWYLPEEG as substrate in presence of ATP measured for 2 hrs by microplate reader assay
Each entry below lists one item and its recorded Ratio value.
Numeric only. Scale: M⁻¹ s⁻¹

Smiles repr: C=CC(=O)N1CCC[C@@H](NC(=O)c2sc3nccc4c3c2NC(=O)N4c2cnc(OC3CCCC3)cc2C)C1
Ratio (M⁻¹ s⁻¹): 13800

Given the molecule C=CC(=O)N1CCC[C@@H](NC(=O)c2sc3nccc4c3c2NC(=O)N4c2ccc(Oc3ccccc3)cn2)C1 , what is its reported Ratio?
664

Can you handle C=CC(=O)NCCNC(=O)c1sc2nccc3c2c1NC(=O)N3c1cnc(CC(C)C)cc1C next?
131

Queued: C=CC(=O)N1CCC[C@@H](NC(=O)c2sc3nccc4c3c2NC(=O)N4c2cnc(OC3CCC3)cc2C)C1
5000

Try this molecule next: C=CC(=O)N1CCC[C@@H](NC(=O)c2sc3nccc4c3c2NC(=O)N4c2ccc(Oc3ccccc3)cc2)C1
13800

Now consider C=CC(=O)N1CCC[C@@H](NC(=O)c2sc3nccc4c3c2NC(=O)N4c2cnc(Oc3ccccc3)cc2C)C1 and answer again.
13000

Entry to check: C=CC(=O)N1CC[C@@H](NC(=O)c2sc3nccc4c3c2NC(=O)N4c2cnc(CC(C)C)cc2C)C1
98.5

Same lookup for C=CC(=O)N1CCC[C@@H](NC(=O)c2sc3nccc4c3c2NC(=O)N4c2cnc(OC(C)C)cc2C)C1 , please.
1660

###

assay: Protein binding in Cynomolgus monkey plasma assessed as free fraction; format: ADME, cell-free, Macaca fascicularis
Experimental endpoint: fraction unbound
Response field accepts a number only; no unit should be typed.

Which fraction unbound value belongs to C=CC(=O)N1CC[C@@H](NC(=O)c2sc3nccc4c3c2NC(=O)N4c2ccc(Oc3ccccc3)cc2C)C1 ?
0.0025

###

experiment: Metabolic stability in human liver microsomes assessed as half life at 1 uM measured upto 60 mins in presence of NADPH by LC-MS/MS analysis; assay type: ADME, Microsome
Kindly apply the following: Y if half-life at 1 µM is less than 20 min, N in every other case.

Smiles repr: C=CC(=O)N1CCC[C@@H](NC(=O)c2sc3nccc4c3c2NC(=O)N4c2cnc(OC(C)C)cc2C)C1
Classification: Y

Dear reviewer, please state whether C=CC(=O)N1CC[C@@H](NC(=O)c2sc3nccc4c3c2NC(=O)N4c2ccc(Oc3ccccc3)cc2C)C1 has half-life at 1 µM strictly beneath 20 min.
N

Similarly, C=CC(=O)N1CCC[C@@H](NC(=O)c2sc3nccc4c3c2NC(=O)N4c2ccc(Oc3ccccc3)nc2)C1 ?
Y

Cool, now C=CC(=O)N1CC[C@@H](NC(=O)c2sc3nccc4c3c2NC(=O)N4c2cnc(CC(C)C)cc2C)C1
N

Another: C=CC(=O)N1CCC[C@@H](NC(=O)c2sc3nccc4c3c2NC(=O)N4c2ccc(Oc3ccccc3)cn2)C1
Y

For C=CC(=O)N1CCC[C@@H](NC(=O)c2sc3nccc4c3c2NC(=O)N4c2ncc(Oc3ccccc3)cc2C)C1 then?
Y

What would you report for C=CC(=O)N1CCC[C@@H](NC(=O)c2sc3nccc4c3c2NC(=O)N4c2cnc(OC3CCC3)cc2C)C1 ?
Y

// query: C=CC(=O)N1CCC[C@@H](NC(=O)c2sc3nccc4c3c2NC(=O)N4c2ccc(Oc3ccccc3)cc2)C1
Y

###

assay: Aqueous solubility of the compound in simulated gastric fluid at 10 mM incubated for 24 hrs with stirring by UV-HPLC analysis; type: physicochemical
Experimental endpoint: solubility at 24 h, 10000 µM

I would be grateful if you could share the reported solubility at 24 h, 10000 µM for C=CC(=O)N1CC[C@@H](NC(=O)c2sc3nccc4c3c2NC(=O)N4c2ccc(Oc3ccccc3)cc2C)C1 .
< 4 µM

###

assay: Aqueous solubility of the compound in FaSSIF at 10 mM incubated for 24 hrs with stirring by UV-HPLC analysis; format: physicochemical
Experimental endpoint: solubility at 24 h, 10000 µM

# get_value(readout='solubility at 24 h, 10000 µM', item= C=CC(=O)N1CC[C@@H](NC(=O)c2sc3nccc4c3c2NC(=O)N4c2ccc(Oc3ccccc3)cc2C)C1 )
< 4 µM

###

assay: Protein binding in Beagle dog plasma assessed as free fraction; type: ADME, cell-free, Canis lupus familiaris
Experimental endpoint: fraction unbound
Respond using a number only.

Using the record for C=CC(=O)N1CC[C@@H](NC(=O)c2sc3nccc4c3c2NC(=O)N4c2ccc(Oc3ccccc3)cc2C)C1 , report its fraction unbound.
0.0012

###

assay: Metabolic stability in human liver microsomes assessed as half life at 1 uM measured upto 60 mins in presence of NADPH by LC-MS/MS analysis; type: ADME, Microsome
Experimental endpoint: half-life at 1 µM (min)
The reply should contain only the number, in min.

These solved cases illustrate the format of a correct answer.
Smiles repr: C=CC(=O)N1CCC[C@@H](NC(=O)c2sc3nccc4c3c2NC(=O)N4c2cnc(CC(C)C)cc2C)C1
Measured number: 6
//
Smiles repr: C=CC(=O)NCCNC(=O)c1sc2nccc3c2c1NC(=O)N3c1cnc(CC(C)C)cc1C
Measured number: 27

Consider the additional compound presented here.
Which half-life at 1 µM reading was recorded for the compound C=CC(=O)N1CCC[C@@H](NC(=O)c2sc3nccc4c3c2NC(=O)N4c2cnc(Oc3ccccc3)cc2C)C1 ?
5

###

target: UniProtKB Q06187; assay: Inhibition of full length N-terminal GST-tagged human BTK expressed in Sf21 cells assessed as Kinact using NH2-KKKAPFSWYLPEEG as substrate in presence of ATP measured for 2 hrs by microplate reader assay
Experimental endpoint: Kinact (s⁻¹)
Reply numerically in s⁻¹, unit not repeated.

// solved cases for Kinact follow
Smiles repr: C=CC(=O)N1CCC[C@@H](NC(=O)c2sc3nccc4c3c2NC(=O)N4c2cnc(OC3CCC3)cc2C)C1
Unit string: s⁻¹
Kinact: 0.000316

Smiles repr: C=CC(=O)N1CCC[C@@H](NC(=O)c2sc3nccc4c3c2NC(=O)N4c2cnc(CC(C)C)cc2C)C1
Unit string: s⁻¹
Kinact: 0.000319

Smiles repr: C=CC(=O)NCCNC(=O)c1sc2nccc3c2c1NC(=O)N3c1cnc(CC(C)C)cc1C
Unit string: s⁻¹
Kinact: 0.000317

# query: Kinact of entry C=CC(=O)N1CCC[C@@H](NC(=O)c2sc3nccc4c3c2NC(=O)N4c2ccc(Oc3ccccc3)cn2)C1
0.000303
